// values below are reported viability at 28.5 h, 10 µM
experiment: in vitro; conditions: human, hela cells, % viability
Write the answer as a number in %, unit excluded.

State its viability at 28.5 h, 10 µM: COc1ccc(NS(=O)(=O)c2ccc(NC(=S)NC(=O)C(C)(C)C)cc2)cc1
109

Entry O=C(COc1ccccc1)NCC1(c2ccccc2)CCOCC1 needs its viability at 28.5 h, 10 µM filled in; supply it.
103

---
Find the measured viability at 28.5 h, 10 µM of O=C(c1ccccn1)c1ccccn1 and report it.
89

Hello, please tell me recorded viability at 28.5 h, 10 µM for this one: COCCN1CCCC(NC(C)c2ccc(OC)c(F)c2)C1 (centres unmarked)
80.9

State, in one line, measured viability at 28.5 h, 10 µM of Cc1ccc(OCC(=O)NCC(c2cccs2)N2CCOCC2)cc1C (centres unmarked)
93.3

Reference source: paper PMC12040169
